system: A-375; assay: Growth inhibition of human A375 cells after 4 days by MTT assay; assay type: functional, cell-based; settings: A-375, 96 h
pIC50: −log10 of the molar value.
metric: pIC50

Some entries whose results are on file:
structure smiles string | pIC50
CN1C[C@@H]2C[C@H]1CN2c1c(F)cc(-c2ccnc3c(-c4cccc5[nH]ncc45)c(-c4ccncc4)nn23)cc1F | 5.90
CN1C[C@@H]2CC[C@H]1CN2c1ccc(-c2ccnc3c(-c4cccc5[nH]ncc45)c(-c4ccncc4)nn23)cc1 | 6.73
CN1C[C@@H]2C[C@H]1CN2c1ccc(-c2ccnc3c(-c4cccc5[nH]ncc45)c(-c4ccncc4)nn23)cc1C(F)(F)F | 6.56

(I) c1cc(-c2c(-c3ccncc3)nn3c(-c4ccc(CN5C[C@@H]6C[C@H]5CO6)cc4)ccnc23)c2cn[nH]c2c1
(II) CN1C[C@@H]2C[C@H]1CN2c1ccc(-c2ccnc3c(-c4cccc5[nH]ncc45)c(-c4ccncc4)nn23)c(F)c1
(III) Cc1cc(N2C[C@@H]3C[C@H]2CN3C)ccc1-c1ccnc2c(-c3ccc(F)c4[nH]ncc34)c(-c3ccncc3)nn12
(IV) CN(C)c1cc(N2C[C@@H]3C[C@H]2CN3C)ccc1-c1ccnc2c(-c3cccc4[nH]ncc34)c(-c3ccncc3)nn12
Query :: Please produce an ascending ranking of these molecules based on pIC50. Provide the ranking by listing each label in its place in the requested order.
Result :: IV, I, III, II
(IV: 5.73, I: 6.02, III: 6.73, II: 7.36)

Just for reference, ChEMBL document CHEMBL1275379 is where these values come from.
